meta.source: the supplement of paper PMC10307832

- System: NCI-H2405
- Test: relative viability (nuclei count vs DMSO), 5 days (fraction); higher = more cells survive
- Recorded Conditions: first compound 0.4 µM
Recorded Endpoint: relative viability
Answers are plain numbers.

{"columns": ["Compound", "relative viability"],
 "data": [
  ["Cc1sc2c(c1C)C(c1ccc(Cl)cc1)=N[C@@H](CC(=O)OC(C)(C)C)c1nnc(C)n1-2 [JQ1] + C[C@]1(O)C[C@@H](c2nc(-c3ccc4ccc(-c5ccccc5)nc4c3)c3c(N)nccn32)C1 [Linsitinib] (partner 1 µM)", 0.779],
  ["Cc1sc2c(c1C)C(c1ccc(Cl)cc1)=N[C@@H](CC(=O)OC(C)(C)C)c1nnc(C)n1-2 [JQ1] + Cc1nc(NC(=O)N2CCC[C@H]2C(N)=O)sc1-c1ccnc(C(C)(C)C(F)(F)F)c1 [Alpelisib] (partner 2 µM)", 0.74],
  ["Cc1sc2c(c1C)C(c1ccc(Cl)cc1)=N[C@@H](CC(=O)OC(C)(C)C)c1nnc(C)n1-2 [JQ1] + CS(=O)(=O)N1CCN(Cc2cc3nc(-c4cccc5[nH]ncc45)nc(N4CCOCC4)c3s2)CC1 [Pictilisib] (partner 1 µM)", 0.405]
]}

Would you kindly look at the next entry?
Exam item: Complete the entry with relative viability for Cc1sc2c(c1C)C(c1ccc(Cl)cc1)=N[C@@H](CC(=O)OC(C)(C)C)c1nnc(C)n1-2 [JQ1] + O=C(CCCCCCC(=O)Nc1ccccc1)NO [Vorinostat] (partner 1 µM)
Marked response: 0.79

----------
- Tested on: EBC-1
- Test: relative viability (nuclei count vs DMSO), 5 days (fraction); higher = more cells survive
- Recorded Conditions: first compound 0.1581 µM
Answer each item with its documented relative viability.
One number for each entry.

Example entries and their recorded answers appear below.
{"columns": ["Compound", "Endpoint Value"],
 "data": [
  ["COc1cc2nccc(Oc3ccc(NC(=O)Nc4cc(C)on4)c(Cl)c3)c2cc1OC [Tivozanib] + C[C@@H](Oc1cc(-c2cnn(C3CCNCC3)c2)cnc1N)c1c(Cl)ccc(F)c1Cl [Crizotinib] (partner 1 µM)", 0.207],
  ["Nc1ccn([C@@H]2O[C@H](CO)[C@@H](O)[C@@H]2O)c(=O)n1 [Cytarabine] + CC1(C)CCC(c2ccc(Cl)cc2)=C(CN2CCN(c3ccc(C(=O)NS(=O)(=O)c4ccc(N[C@H](CCN5CCOCC5)CSc5ccccc5)c(S(=O)(=O)C(F)(F)F)c4)cc3)CC2)C1 [Navitoclax] (partner 0.5 µM)", 0.222]
]}

--- query ---
Exam item: Provide relative viability value for the following compound: Nc1ccn([C@@H]2O[C@H](CO)[C@@H](O)[C@@H]2O)c(=O)n1 [Cytarabine] + CS(=O)(=O)N1CCN(Cc2cc3nc(-c4cccc5[nH]ncc45)nc(N4CCOCC4)c3s2)CC1 [Pictilisib] (partner 1 µM)
Marked response: 0.215

----------
- Tested on: LCLC-97TM1
- Test: relative viability (nuclei count vs DMSO), 5 days (fraction); higher = more cells survive
- Recorded Conditions: first compound 158.11 µM
Sorting guide: entries reporting relative viability beneath 0.1 go in the criterion met pile, the rest go in the criterion not met pile.

Exam item: Dear reviewer, please state whether O=C(O)CCCCC(CCSCc1ccccc1)SCc1ccccc1 (stereo unspecified) [CPI-613] + CS(=O)(=O)N1CCN(Cc2cc3nc(-c4cccc5[nH]ncc45)nc(N4CCOCC4)c3s2)CC1 [Pictilisib] (partner 1 µM) has relative viability strictly beneath 0.1.
Marked response: criterion not met

Exam item: Lab log: compare recorded relative viability with 0.1; is it strictly lower for O=C(O)CCCCC(CCSCc1ccccc1)SCc1ccccc1 (stereo unspecified) [CPI-613] + NC(=O)Nc1cc(-c2cccc(F)c2)sc1C(=O)N[C@H]1CCCNC1 [AZD7762] (partner 0.2 µM) ?
Marked response: criterion not met

Exam item: For O=C(O)CCCCC(CCSCc1ccccc1)SCc1ccccc1 (stereo unspecified) [CPI-613] + O=C(CCCCCCC(=O)Nc1ccccc1)NO [Vorinostat] (partner 1 µM) , is the recorded relative viability below the cut-off of 0.1?
Marked response: criterion not met

Exam item: Just wondering, is relative viability of O=C(O)CCCCC(CCSCc1ccccc1)SCc1ccccc1 (stereo unspecified) [CPI-613] + C[C@@H](Oc1cc(-c2cnn(C3CCNCC3)c2)cnc1N)c1c(Cl)ccc(F)c1Cl [Crizotinib] (partner 1 µM) below 0.1?
Marked response: criterion not met

Exam item: Dear reviewer, please state whether O=C(O)CCCCC(CCSCc1ccccc1)SCc1ccccc1 (stereo unspecified) [CPI-613] + Cc1nc(NC(=O)N2CCC[C@H]2C(N)=O)sc1-c1ccnc(C(C)(C)C(F)(F)F)c1 [Alpelisib] (partner 2 µM) has relative viability strictly beneath 0.1.
Marked response: criterion not met

Exam item: Could you please tell me whether relative viability recorded for O=C(O)CCCCC(CCSCc1ccccc1)SCc1ccccc1 (stereo unspecified) [CPI-613] + CC(=O)Nc1cccc(-n2c(=O)n(C3CC3)c(=O)c3c(Nc4ccc(I)cc4F)n(C)c(=O)c(C)c32)c1 [Trametinib] (partner 0.02 µM) is less than 0.1?
Marked response: criterion met
